experiment: quencher artefacts in RAD54 branch migration readout – biochemical, Cy5 label, cherry-picked samples, artefact control for RAD54 inhibitor project, dose response (AID 651651); conditions: Cy5 DNA fluorescence quench counter-screen; series mostly up to 50 µM
Calls of active or inactive are those of the source.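 Rule for the calls: active = signal-lowering compounds whose fitted half-effect concentration is no more than twice the top tested dose; inconclusive = flat curve with 30 to 70% inhibition, or poor fit; inactive = the rest.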
observable: outcome

compound.structure	observable	experimental.value
COc1ccc(CN(C)C[C@@H]2Oc3ccc(NC(=O)Nc4ccc(OC)cc4)cc3C(=O)N([C@H](C)CO)C[C@H]2C)cc1	outcome	inactive
Cc1noc(C)c1NC(=O)Nc1ccc2c(c1)C(=O)N([C@@H](C)CO)C[C@@H](C)[C@H](CN(C)C(=O)Nc1cccc3ccccc13)O2	outcome	inactive
C[C@H]1CN([C@@H](C)CO)C(=O)Cc2cc(NC(=O)Nc3cccc4ccccc34)ccc2O[C@H]1CN(C)S(=O)(=O)c1ccc(Cl)cc1	outcome	inactive
COCC(=O)Nc1ccc2c(c1)[C@H]1C[C@@H](CC(=O)NCc3ccccc3F)O[C@H](CO)[C@H]1O2	outcome	inactive
COc1ccccc1CNC(=O)C[C@@H]1C[C@@H]2c3cc(NC(=O)CN(C)C)ccc3O[C@@H]2[C@@H](CO)O1	outcome	inactive

Quick note, outcome for COc1ccc(S(=O)(=O)Nc2ccc3c(c2)[C@@H]2C[C@H](CC(=O)NCC4CC4)O[C@H](CO)[C@@H]2O3)cc1 landed at inactive

Quick note, outcome for C[C@@H]1CN([C@@H](C)CO)C(=O)c2cc(C3=CCCC3)cnc2O[C@@H]1CN(C)C(=O)Nc1ccc(F)cc1 landed at inactive
